Entries annotated with measured Red blood cells, Mean
- Assay protocol: Evaluation of blood cell number in mouse
- Format: in vivo
- Condition parameters: male ICR mice, oral, repeated 7 or 9 days, 100 mg/kg
Counter-ions that a name gives are not always drawn.

Please review the entries below; each comes with its answer.
- Cc1nnc(NC(=O)c2cc([C@@H]3C[C@H]3NCC3CC3)cs2)s1 [Example 82, dihydrochloride]: 903 10^4 cells
- Cc1nnc(NC(=O)c2cc([C@@H]3C[C@H]3NCC3CCOCC3)c(C)s2)s1 [Example 97, hydrochloride]: 929 10^4 cells
- Cc1sc(C(=O)Nc2cnn(C)c2)cc1[C@@H]1C[C@H]1NC1CCC1 [Example 123, hydrochloride]: 866 10^4 cells
- Cc1nnc(NC(=O)c2cc([C@@H]3C[C@H]3NC3CCC3)c(C)s2)s1 [Example 99, hydrochloride]: 876 10^4 cells

Fill in reported Red blood cells, Mean for this entry: O=C(NC1CCOCC1)c1csc([C@@H]2C[C@H]2NCC2CC2)c1 [Example 71, hydrochloride]
853 10^4 cells
